System: HS 578T breast
method_description: NCI-60 one-dose screen, 48 h
conditions_used: 10 µM unless noted
About 83,000 compounds went through this panel and 20% of them were active in at least one assay; those are over-represented in the sample as a whole. Activity calls are given as the source filed them. How the source made its calls: active means growth percent below 10; inactive means the rest.
Mark one answer only. Choices: active, inactive

Would you please look over these solved cases?
1) COc1cc2nc(-c3ccc(Cl)cc3)cc(OCCCN3CCCC3)c2cc1OC : inactive
2) C[C@H](c1nc2ccc(N)cc2[nH]1)[C@H]1CC[C@H]2[C@@H]3CCC4=CC(=O)CC[C@]4(C)[C@H]3CC[C@]12C : inactive

Called result for C=C(C)[C@@H]1CC[C@]2(CN)CC[C@]3(C)[C@H](CC[C@@H]4[C@@]5(C)CCCNC(C)(C)[C@@H]5CC[C@]43C)[C@@H]12 active

Called result for CCOC(=O)Oc1c(OC)cc(C(=O)c2ccc(OC)c(O)c2OC)cc1OC inactive

====

Test system: SK-MEL-5 melanoma
method_description: NCI-60 one-dose screen, 48 h (100 = growth as untreated, 0 = no growth, -100 = all killed)
conditions_used: 10 µM unless noted
About 83,000 compounds went through this panel and 20% of them were active in at least one assay; those are over-represented in the sample as a whole.
Please assign a class to every record based on measured growth, with ranges low bin: < 20%; mid bin: ≥ 20% and < 90%; high bin: ≥ 90%

Would you please look over these solved cases?
1. COc1cc2cc(CN3CCN(c4nccc(-c5ccc6ccccc6c5)n4)CC3)c(=O)[nH]c2cc1OC : mid bin
2. COc1ccccc1/C=C1\Oc2cc(OCCN3CCCC3)ccc2C1=O : mid bin
3. Cc1ccc(NC(=O)c2cc(-c3nc4ccccc4s3)c(=O)n(NS(=O)(=O)c3ccc(Cl)cc3)c2N)cc1 : high bin

Please report the category associated with O=C(CCN1CCCC1)Nc1ccc2c(Nc3ccc(F)cc3)c3ccccc3nc2c1 , nothing else. mid bin

Please report the category associated with CC(C)(C)c1ccc(NS(=O)(=O)c2ccc3nc(NC(=O)c4cnccn4)[nH]c3c2)cc1 , nothing else. low bin

Please report the category associated with CC(c1ccccc1)C(C(=O)c1ccccc1)c1ccccc1 (stereo not drawn) , nothing else. high bin

Please report the category associated with COc1ccc(C(=O)C2C(C#N)C(C#N)C3c4ccccc4C=CN23)cc1 (stereo not drawn) , nothing else. mid bin

Please report the category associated with O=C1c2cccc3c(-c4ccc5c(c4)ncn5C4CCCCC4)ccc(c23)C(=O)N1c1nc2ccccc2s1 , nothing else. mid bin

Please report the category associated with C/C=C(\C)C(=O)NC1=CC[C@@]2(C)C(=CCC3C2CC[C@@]2(C)C3CC[C@@H]2C(C)N(C)C)C1=O (stereo partly drawn) , nothing else. low bin

====

System: NCI-H522 lung
method_description: NCI-60 one-dose screen, 48 h
conditions_used: 10 µM unless noted
The panel holds about 83,000 compounds, 20% with a hit somewhere; the sample as a whole holds those more often. The source made the active and inactive calls. The calls were made as follows: active = growth percent below 10; inactive = the rest.
Mark one answer only. Choices: active, inactive

Would you please look over these solved cases?
1) O=C1Nc2cc(-c3ccc(NS(=O)(=O)c4ccccc4)cc3)ccc2/C1=C/c1ccc[nH]1 : inactive
2) CC(C)(C)c1ccc(NS(=O)(=O)c2ccc3nc(NC(=O)c4cnccn4)[nH]c3c2)cc1 : inactive

Called result for COc1cc2oc(-c3cccc(C(=O)Nc4ccc(Cl)cc4)c3)cc(=O)c2c(O)c1OC inactive

Called result for COc1cc(/C=C\c2cc(OC)c(OC)c(OC)c2)cc(NC(=O)/C=C/c2cc(OC)c(OC)c(OC)c2)c1OC inactive

Called result for COc1ccc(CC(C)=C(c2ccc(OCCN3CCCCCC3)cc2)c2ccc(OCCN3CCCCCC3)cc2)cc1 active

====

Tested on: UACC-257 melanoma
method_description: NCI-60 one-dose screen, 48 h
conditions_used: 10 µM unless noted
Compounds without any hit were thinned out: in the full panel of roughly 83,000, 20% have a hit. Calls of active or inactive are those of the source. How the source made its calls: active means growth percent below 10; inactive means the rest.
Mark one answer only. Choices: yes (1) (active), no (0) (inactive)

Would you please look over these solved cases?
1) Cc1ccc(NC(C(=O)c2ccccc2)c2ccccc2)cc1 (stereo not drawn) : no (0)
2) Cc1cc(C)c(S(=O)(=O)Oc2ccccc2[N+](=O)[O-])c(C)c1 : no (0)
3) Cc1cc2nc3c4ccc(Br)cc4n(CCN(C)C)c3nc2cc1C : no (0)

Called result for CN(C)c1ccc(C2C(C#N)=C(/N=C/c3ccccc3)Oc3c2ccc2ccccc32)cc1 (stereo not drawn) no (0)

Called result for O=C(Cn1c(C(=O)c2ccccc2)nc2ccccc21)c1ccc(F)cc1 no (0)

Called result for COc1cc(-c2cc(-c3ccc(N(C)C)cc3)nc(N3CCOCC3)c2C#N)cc(OC)c1OC no (0)

Called result for Cc1ccccc1NS(=O)(=O)c1cccc(C(=O)Nc2ccc(Br)cc2)c1 no (0)

Called result for C=C1C(=O)O[C@H]2[C@H]1CC/C(CNC(=O)C(C)c1ccc(CC(C)C)cc1)=C\CC[C@@]1(C)O[C@@H]21 (stereo partly drawn) yes (1)

Called result for COc1ccccc1/C(C)=N/NC(=O)CSc1nc2ccccc2c(=O)n1Cc1ccc(S(N)(=O)=O)cc1 no (0)

Called result for CCCCCOc1ccc(/C=N/Nc2cc(C)nc3ccc(Cl)cc23)cc1 no (0)

Called result for O=C(Cc1ccc(/C=C/C(=O)c2nccs2)cc1)Nc1ccccc1 no (0)

Called result for C=CCn1c(-c2ccc(-c3nc4ccc(C)cc4[nH]3)cc2)n[nH]c1=S no (0)

Called result for Clc1ccc(-c2ccc(CNCC3CCNCC3)o2)c(-c2ccccc2)c1 yes (1)

Called result for COc1cc(C(=O)Nc2cc3c(cc2Oc2cc(C)cc(C)c2)C(=O)N(C)[C@@H](CC(=O)N(C)O)C(=O)N3)c(Br)c(OC)c1OC yes (1)

Called result for CC1(C)CC(=O)C2=C(C1)N(c1ccc(F)cc1F)C(N)=C(C#N)C2c1cc(Br)ccc1F (stereo not drawn) no (0)

Called result for CNCCOc1nc2c3cnccc3cc(-c3cc(OC)c(OC)c(OC)c3)c2c2ccncc12 yes (1)

Called result for COc1ccc(-c2cnc3c(-c4cccc5cnccc45)cnn3c2)cc1 no (0)

Called result for COc1cc2nc(-c3ccc(C(F)(F)F)cc3)cc(OCCCN3CCOCC3)c2cc1OC yes (1)

Called result for Oc1ccc(OCCOc2ccc(O)cc2)cc1 no (0)

Called result for COc1ccc(C(=O)C2C(C#N)C(C#N)C3C=Cc4ccccc4N32)cc1 (stereo not drawn) no (0)

Called result for O=C1CC(=O)OC(c2ccc([N+](=O)[O-])cc2)O1 yes (1)

Called result for CC(=O)c1ccc(NS(=O)(=O)c2cccc(C(=O)Nc3ccc(Br)cc3)c2)cc1 no (0)

Called result for Nc1c(C(=O)Nc2cccc3cnccc23)sc2nc3c(cc12)CN(Cc1ccccc1)CC3 no (0)

Called result for COc1cc2oc(-c3cccc(C(=O)Nc4ccccc4)c3)cc(=O)c2c(O)c1OC no (0)

Called result for O=C(Cc1ccccc1)NNc1nc(Cl)nc(N2CCN(C(c3ccccc3)c3ccccc3)CC2)n1 no (0)

====

Test system: NCI-H460 lung
method_description: NCI-60 one-dose screen, 48 h (100 = growth as untreated, 0 = no growth, -100 = all killed)
conditions_used: 10 µM unless noted
This is part of a sample that, as a whole, favours compounds with a hit. Of some 83,000 tested, about 20% had one in any assay.
Below is a list of entries, each paired with its recorded growth value.
Respond with the bare value in %.

Consider the reported growth for these compounds:
1. CCCCCN1C=C/C(=C\C(=O)N2CCCc3ccccc32)c2ccccc21 : 91.9
2. CCCCOc1ccc(/C=N/Nc2cc(C)nc3ccc(Br)cc23)cc1 : -34.6

Quick one: growth of CNCCOc1nc2c3cnccc3cc(-c3cc(OC)c(OC)c(OC)c3)c2c2ccncc12 ? -46.8

Quick one: growth of CN(C)c1ccc(Nc2c3ccccc3nc3cc(NC(=O)CCN4CCCC4)ccc23)cc1 ? -65.5

Quick one: growth of O=C(/C=C/c1ccc(Cl)cc1)c1ccc(NC(=O)N2CCN(c3cc4c(cc3F)c(=O)c(C(=O)O)cn4C3CC3)CC2)cc1 ? 87.8

Quick one: growth of Cn1ccc2c1CC1CN(Cc3ccco3)C(=O)C1C2C(=O)O (stereo unspecified) ? 102

Quick one: growth of CNC(=O)c1cccc(Cn2nc(C)c(NC(=O)c3ccc(COc4ccc(C(F)(F)F)cc4C)cc3)c2C)c1 ? 47.7

Quick one: growth of N#CC1=C(N)Oc2c(cnn2-c2ccc([N+](=O)[O-])cc2[N+](=O)[O-])C1c1ccccc1 (stereo unspecified) ? 103

Quick one: growth of O=C1NN(C(=O)c2ccccc2)C(c2ccc(Cl)c(Cl)c2)=C/C1=C\c1ccc([N+](=O)[O-])cc1 ? 83
